This section presents IC50 values reported for PIK3CG (human) (UniProt P48736) in the literature.
Reply with just the number (in nM).

Guide cases for IC50, answers given:
CN(C)CCn1ccc2c(N3CCOCC3)nc(-c3ccc(NC(=O)Nc4ccccn4)cc3)nc21    626
CNC(=O)C(C)Cn1cnc2ccc(-c3cnc(OC)c(NS(=O)(=O)c4cc(C(F)(F)F)cc(C(F)(F)F)c4)c3)cc2c1=O (single isomer, unassigned)    360
CN1CCN(c2ccc(NC(=O)Nc3ccc4c(c3)C(=O)/C(=C/c3cn(C)c5nccc(N6CC7CCC(C6)O7)c35)O4)cc2)CC1    6670

Consider now this further compound.
For record Cn1cc(/C=C2\Oc3cccc(O)c3C2=O)c2c(-c3cccc(O)c3)ccnc21 the listed IC50 is 93
